Each recorded value in this set is attributed to the OPERA property sets (Mansouri et al. 2018).

# experimental parameters: 20 °C
Please enter 1 where solubility is greater than or equal to 30 mM, and 0 where it is lower.

1. O=c1nc[nH]c2nc(-c3ccccc3)c(-c3ccccc3)nc12 : 0
2. Nc1ncnc2c1ncn2[C@@H]1O[C@H](COP(=O)(O)O)[C@@H](O)[C@H]1O : 0
3. O/N=C1\C=CCCC1 : 1
4. O=c1cccc2[nH]ccnc1-2 : 1
5. O=CCCCCCCCC(=O)O : 1
6. Cn1c(=O)c2nccnc2n(C)c1=O : 1
7. COc1ccccc1C(N)=O : 0

----------
# experimental parameters: 21 °C
Bucketed by reported solubility, buckets being low value (below 3 mM), medium value (3 mM to below 20 mM), high value (20 mM or more)

1) O=C(O)CNC(=O)c1ccco1 : high value
2) NC(N)=N/C(N)=N/c1ccc2ccccc2c1 : low value
3) O=C(O)COc1ccc([N+](=O)[O-])cc1[N+](=O)[O-] : medium value
4) Cc1cc(O)c(C(=O)O)cc1Cl : low value
5) CC(=O)N[C@@H](Cc1c[nH]c2ccccc12)C(=O)O (racemic) : medium value
6) O=C(O)c1cc(Br)ccc1Cl : medium value
7) O=C(O)c1ccccc1C(=O)c1ccc(O)cc1 : low value
8) CNC(CC(=O)O)C(=O)O (stereo in doubt) : high value
9) COc1ccc2[nH]c(=O)cc(C(=O)O)c2c1 : low value
10) CCCCOc1cc(C(=O)NCCN(CC)CC)c2ccccc2n1 : low value
11) NC(N)=NCCS(=O)(=O)O : high value
12) COc1ccc(NC(N)=O)cc1 : high value
13) NC(=S)NCNC(N)=S : high value

----------
# experimental parameters: 20 °C
Please enter true where solubility is greater than or equal to 20 mM, and false where it is lower.

1) COC(=O)c1cc([N+](=O)[O-])ccc1C(=O)O : false
2) O=C(Nc1ccccc1)C(Cl)Cl : false
3) O=C(O)C(O)C(O)c1ccccc1 (stereo unspecified) : true
4) CCC(O)C(Cl)(Cl)Cl (stereo unspecified) : true
5) NN=c1nc[nH]c2nccnc12 : false
6) Clc1cnc2ncncc2n1 : true
7) Cc1ccc(P(=O)(O)O)c(C)c1 : true
8) O=C(O)C(I)=C(Br)I : true
9) Brc1ccc2c(c1)Sc1ccccc1N2 : false
10) CC(C)(C(=O)O)C(C)(CC(=O)O)C(=O)O (stereo unspecified) : true
11) Nc1ccncc1 : true
12) O=S(=O)(CCCl)CCCl : true
13) O=C(O)c1c(Cl)c(Cl)c(Cl)c(Cl)c1C(=O)O : false
14) COc1nsc(N)n1 : true
15) CCC(C)(O)C(O)c1ccccc1 (stereo unspecified) : false
16) OCc1ccc(Cl)cc1 : false
17) CC1(c2ccccc2)C(=O)NC(=O)NC1=O : false
18) N#Cc1c(O)cc(Cl)[nH]c1=O : true
19) Cc1nc2cncnc2n(C)c1=O : true
20) c1ccc2c3c(ccc2c1)Nc1ccc2ccccc2c1S3 : false
21) Cc1ncnc2c(O)cccc12 : false
22) O=C1C=Cc2ccccc2C1=NO : false
23) O=C(O)c1ccccc1CO : true
24) NNC(N)=S : true
25) CCOC(C)CCO (stereo unspecified) : true
26) O=Cc1ccc(Br)o1 : true
27) OCc1ccc(Cl)cc1Cl : false
28) CC[C@@H]1C(=O)O[C@H]1C : true
29) O=c1[nH]ccc2cccnc12 : true
30) NC(=O)NN=C1CCCCC1 : true
31) CC(NC(N)=O)C(=O)O (stereo unspecified) : true
32) CC(C)OC(=O)c1c(C(=O)O)cccc1[N+](=O)[O-] : false
33) S=c1nc[nH]c2nccnc12 : false
34) N#Cc1ccc(C(=O)O)cc1 : false
35) COc1ccc(C(=O)O)cc1C(=O)O : false
36) Cc1ccc(C(=O)O)o1 : true
37) CCCC(O)(CCC)C(O)c1ccccc1 (stereo unspecified) : false
38) COc1ncc2nccnc2n1 : true
39) CCOC(=O)c1[nH]c(C=O)c(CC)c1C : false
40) O=[N+]([O-])c1ccc(CO)cc1 : false
41) CC(C)=NNC(N)=O : true
42) NC1=NC(C(=O)O)CCS1 (stereo unspecified) : true
43) Cc1ccc2[nH]c(=O)c(=O)[nH]c2c1 : false
44) COC(=O)c1cc(O)c(OC)c(O)c1 : true
45) O=C(O)CC(SC(CC(=O)O)C(=O)O)C(=O)O (stereo unspecified) : true
46) OCc1ccc(Br)cc1 : false
47) O=C(O)CCCCCCCCCCO : false
48) O=C(O)c1c(Cl)ccc2ccccc12 : false
49) CCCOC(=O)c1c(C(=O)O)cccc1[N+](=O)[O-] : false
50) Nc1ncc2nccnc2n1 : false
51) O=S(CCCl)CCCl : true
52) Cc1snnc1C(=O)O : true
53) NC(N)=Nc1nc2ccccc2s1 : false
54) Cn1c(=O)cnc2cncnc21 : true
55) O=C(NCCO)C(=O)NCCO : true
56) Cc1cc(C)nc(C(N)=O)n1 : true
57) CCCCC(CCC(=O)O)CC(=O)O (stereo unspecified) : true
58) CC(=O)C(=O)c1ccccc1 : false
59) O=c1nccc[nH]1 : true
60) OCC(O)C1OC(Oc2ccccc2)C(O)C(O)C1O (stereo unspecified) : true
61) Oc1cncc2cccnc12 : true
62) c1ccc2c3c(ccc2c1)Sc1ccc2ccccc2c1N3 : false
63) CC(C)(OC1CCCCC1)C(=O)O : true
64) CCC(C)S (stereo unspecified) : false
65) CC(C)(NC(N)=O)C(=O)O : true
66) O=c1ccc(I)c[nH]1 : false

----------
Examples of compounds with documented solubility follow.
# experimental parameters: 25 °C
measured quantity: solubility (mM)

1) O=C(NC1CCCCC1)c1cccnc1 : 4.8
2) COc1c(O)ccc(C=O)c1C : 42.1
3) C[Si](C)(O)O[Si](C)(C)O : 661
4) O=C(O)c1cccc2cccnc12 : 18
5) Cn1cc([N+](=O)[O-])c(=O)[nH]c1=O : 10.1
6) Cc1cc(C)c([PH](=O)O)c(C)c1 : 1.62
7) CCCCCCP(=O)(OCC)OCC : 2.7
8) O=C(O)CC1NC(=O)NC1=O (stereo unspecified) : 70.5
9) CCC(CC)(CC(=O)O)C(=O)O : 160
10) CCCCCCCCCC(C(=O)O)C(=O)O : 0.499
11) O=CNCC(=O)O : 1850
12) CCCCCNC(=O)C(C)O (stereo unspecified) : 414
13) ON=C1CCCCCC1=NO : 37.6
14) Cc1cccc(I)c1O : 14.5
15) CC1CCC(=NO)C(=NO)C1 (stereo unspecified) : 21.8
16) CCCCCOC(=O)CCOCC : 6.37

----------
# experimental parameters: 20 °C
Examples of compounds with documented solubility follow.
measured quantity: solubility (mM)

1. CC=CC(=O)Nc1ccc(O)cc1 : 2.26
2. O=S(=O)(c1ccccc1)N1CCCCC1 : 2.91
3. Cc1cc(C)c(OCC(=O)O)c(Br)c1 : 0.753
4. OCc1ccc(O)cc1 : 54
5. OCc1ccccc1Br : 6.95
6. Cc1ccc(O)c(CO)c1 : 485
7. CC1(C)C2CCC1(C)C(N)(C(=O)O)C2 (stereo not given) : 25.3
8. Nc1nc(N)nc(Cl)n1 : 4.12
9. CN[C@@H](Cc1ccc(O)cc1)C(=O)O : 7.37
10. NCCCCCCNCCCCCCCCCCC(=O)O : 4.99
11. CC(C)Cc1ncc[nH]1 : 89.4
12. O=C(O)CC(O)C(=O)O (stereo not given) : 5790
13. Cn1c(=O)c2c(n(C)c1=O)n(C)c(=O)n2C : 112
14. Cc1cc(C(O)(c2ccc(N)cc2)c2ccc(N)cc2)ccc1N : 0.939
15. C=CCC(C(=O)O)C(C)C(=O)O (stereo not given) : 87.1

----------
# experimental parameters: 25 °C
Examples of compounds with documented solubility follow.
measured quantity: solubility (mM)

1) CCc1cc(C)cc(O)c1 : 17
2) CCCCC(=O)NCCNC(=O)CCCC : 15.3
3) CC(=O)OOC(=O)c1ccccc1 : 3.55
4) Cc1nnc(N)nc1C : 80.6
5) CCCCOP(=O)(CCCC)CCCC : 19.2
6) CCCC(=O)N(C)N=O : 29.2
7) O=C(O)C(S)CCC(S)C(=O)O (stereo unspecified) : 3.34
8) Nc1cc(S(=O)(=O)O)ccc1C(=O)O : 48.3
9) CC(C)[C@@H](O)C#N : 2020
10) CCSC(C(=O)O)c1ccccc1 (stereo unspecified) : 27
11) CCCCC(CC)COC(=O)NS(N)(=O)=O (stereo unspecified) : 3.96
12) CCOC(=O)c1cccnc1 : 370
13) COP(=S)(OC)SSP(=S)(OC)OC : 0.04
14) CCC1(C)OC(=O)NC1=O (stereo unspecified) : 1050
15) CCCCCCCCCCCCCCNC(=O)C(C)O (stereo unspecified) : 0.105
16) CCC(=NO)C(CC)=NO : 2.8
